Recorded switch fluorescence ratio, one value per entry.
# Test system: ATP;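 further: ATP exposure 15 min at 22 °C before imaging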
# Experiment Description: switch fluorescence ratio, 500 uM ATP over buffer (Cy3 cluster intensity, sum of 5 cycles each) (fold (ratio)); higher = stronger signal-on switching upon ATP binding; sequences stand for … in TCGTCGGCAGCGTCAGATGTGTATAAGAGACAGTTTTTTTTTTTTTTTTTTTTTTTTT…TC
# Condition Notes: aptamer strand: ATP DNA aptamer (quencher-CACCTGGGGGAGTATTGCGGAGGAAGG + anchor), 100 nM annealed; ATP concentration: 500 uM
Number only, no unit.

Example entries begin here.
Query Sequence	switch fluorescence ratio
GCTTGCAAGG	0.991
TGAGGGGGG	1.01

# get_value(readout= switch fluorescence ratio, system= ATP) for `AAGAGAACGG`;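 further: ATP exposure 15 min at 22 °C before imaging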
1.04

Lab note: need switch fluorescence ratio for `CGTGGGTTCC` on ATP, anyone have it?
0.989

Field: switch fluorescence ratio (ATP). Entry: `TATTTAGTTG`
1
